experimentDescription: qHTS Assay for Lipid Storage Modulators (AID 1519)
conditionDescription: Drosophila S3 cells, BODIPY lipid droplet/cell ratio, laser cytometry; measured here: cell count channel max response; cells loaded with oleic acid
Records with an inconclusive call do not appear.
measuredParameter: max response (%)
Reply with just the number (in %).

# input molecule: O=C(O)CCC(=O)C(=O)O (tested in a mixture with another compound) ; wanted: its max response
11.4

Could you share which max response value was measured for COC1C(O)C(CO)OC1n1cnc2c(=O)[nH]c(N)nc21 (stereo not given) ?
13.5

Looking for the measured max response of CO[C@@H]1C=CO[C@]2(C)Oc3c(C)c(O)c4c(O)c(c(C=NN5CCN(C)CC5)c(O)c4c3C2=O)NC(=O)C(C)=CC=C[C@H](C)[C@H](O)[C@H](C)[C@H](O)[C@H](C)[C@H](OC(C)=O)[C@H]1C , can you help?
-4.36

Look up max response: CC(CCC(=O)O)C1CCC2C3CC[C@H]4CC(O)CC[C@@]4(C)C3C=C[C@]12C (stereo not given in full)
9.1

Requested field: max response. Item: Nc1ncnc2c1ncn2[C@@H]1O[C@H](COP(=O)(O)O)[C@@H](O)[C@@H]1O
-10.2

Look up max response for this molecule: COc1ccc(/C=C/c2cc(O)cc(O[C@H]3OC(CO)C(O)C(O)C3O)c2)cc1 (stereo not given in full)
12.8

Could you share which max response value was measured for Cc1n[nH]c(=O)[nH]c1=O ?
-2.21

What max response value was documented for this molecule, CC(=O)/C(C)=N\O ?
-2.91

For CC(=O)OC1CC(O)C(C)(C)C2CC(OC(C)=O)[C@]3(C)C(CC[C@@]4(C)C(c5ccoc5)OC(=O)C5OC534)[C@]12C (stereo not given in full) , what is its reported max response?
12.6

// returns reported max response for input CC1(C)CC2C1CCC1(C)OC2(C)CCC1O (stereo not given)
12.1

State the recorded max response for this entry: O=c1[nH]c(=O)n(C2CC(O)C(CO)O2)cc1F (stereo not given)
3.49

Quick one: max response of COc1ccc(CCC(=O)c2c(O)cc(OC3OC(CO)C(O)C(O)C3O[C@@H]3OC(C)C(O)C(O)C3O)cc2O)cc1O (stereo not given in full) ?
3.74

Entry COC(=O)CCC(C)C1CCC2C3C(O)C[C@@H]4CC(O)CC[C@@]4(C)C3CC(O)[C@]12C (stereo not given in full) : reported max response = ?
-0.322

Which value of max response has been reported for O=C1O[C@H](CN2CCOCC2)CN1/N=C\c1ccc([N+](=O)[O-])o1 in the records?
-19.2

Query: max response; subject: CCC1OC(=O)C(C)[C@@H](O[C@H]2C[C@@](C)(OC)C(O)C(C)O2)C(C)[C@@H](O[C@@H]2OC(C)CC(N(C)C)C2O)[C@@](C)(O)CC(C)C(=O)[C@@H](C)C(O)[C@]1(C)O (stereo not given in full)
15.2

Reported max response for CC(=O)O[C@H]1C[C@@]2(C)[C@H](C[C@@H](O)[C@H]3[C@@]4(C)CC[C@@H](O)[C@@H](C)[C@H]4CC[C@@]32C)C1=C(CCC=C(C)C)C(=O)O : what is it?
-3.61

Recorded max response of COC(=O)/C(C)=C/CC12OC(C)(C)C3CC(C=C4C(=O)c5cc6c(c(CCC(C)(C)Cl)c5OC431)OC1(C)CCC(=C(C)C)C6C1)C2=O (stereo not given) , please.
7.63

Would you mind telling me what max response value was observed for CC(C)C1CCC(C(=O)NC(Cc2ccccc2)C(=O)O)CC1 (stereo not given) ?
2.86

Value lookup for max response; key = C[C@@H](C(=O)O)c1ccc(N2Cc3ccccc3C2=O)cc1
-8.47

Record request: max response value, item OCCN1CCN(CCC=C2c3ccccc3Sc3ccc(Cl)cc32)CC1
-13.2

Reported max response for C=C1CC[C@H](O)C/C1=C/C=C1\CCC[C@]2(C)[C@H]1CC[C@H]2[C@@H](C)/C=C\[C@@H](C)C(C)C : what is it?
-2.49

Dear colleague, I am looking for the recorded max response of the following molecule: CCOC(=O)c1c(C)cc(O)c(C)c1O
15.9

Find the recorded max response belonging to COC(=O)/C(=C1\OC(=O)C(c2ccccc2)C1=O)c1ccccc1 (stereo not given) and report it.
11.1

Entry under review: C[C@@H]1C(=O)O[C@H]2[C@@H](O)[C@@]34[C@H]5CC(C(C)(C)C)[C@]36[C@@H](OC(=O)[C@@H]6O)O[C@@]4(C(=O)O5)[C@@]12O (stereo not given in full) . Reported max response?
-2.81

Using the record for COc1ccc(-c2coc3cc(O)ccc3c2=O)c(OC)c1O , report its max response.
12.3

So what does the record say about max response for CC(=O)OC1CC[C@]2(C)C(CC(OC(C)=O)[C@]3(C)C2CC[C@@]2(C)C(c4ccoc4)OC(=O)C4O[C@]432)C1(C)C (stereo not given in full) ?
12.6

Give its max response value. Item: CC(=O)OCC(OC(C)=O)C(OC(C)=O)C(OC(C)=O)C(OC(C)=O)C(COC(C)=O)OC(C)=O (stereo not given)
5.07

Looking for the measured max response of COC(=O)[C@H]1[C@@H]2C[C@@H]3c4[nH]c5ccccc5c4CCN3C[C@H]2CC[C@H]1O , can you help?
12.3

I would be grateful if you could share the reported max response for CC(C)CCCC(C)C1CCC2C3CC[C@H]4CC(=O)CC[C@@]4(C)C3CC[C@@]12C (stereo not given in full) .
8.57

max response for CC1CC[C@@]2(OC1)OC1CC3C4CC[C@@H]5CC(O)CC[C@@]5(C)C4CC[C@]3(C)C1C2C (stereo not given in full) ?
11.7

I am curious: what max response value has been reported for C[C@H](CCC(=O)O)[C@H]1CC[C@@H]2[C@H]3[C@@H](CC[C@@]21C)[C@]1(C)CC[C@H](O)C[C@@H]1C[C@@H]3O ?
-6.52

Look up max response: OCC(O)C(O)[C@H](O[C@H]1OC(CO)C(O)C(O)C1O)[C@H](O)CO (stereo not given in full)
11.8

max response for Cc1cc(=O)oc2c(O)c(O)ccc12 ?
-3.48

# get_value(readout='max response', item= CC(C)CCCC(C)C1CCC2C3CC=C4CC(O)CC[C@@]4(C)C3CC[C@@]12C (stereo not given in full) )
-11.4

Quick check: max response of COc1ccc(-c2coc3c(O)c(OC)ccc3c2=O)cc1 ?
25.3

###

Test system: CP250
experimentDescription: qHTS profiling for inhibitors of Plasmodium falciparum proliferation (AID 504749); further: nearly all actives have a fitted effect of over 60% in size
conditionDescription: P. falciparum in erythrocytes, SYBR Green DNA, 72 h; series mostly up to 12.8 µM
Results filed as inconclusive are left out. Activity calls are given as the source filed them. Calls come from the whole dose curve; as a rule, active = well fitted inhibition curve with a large enough effect; inconclusive = small, poorly fitted or top-dose-only effect; inactive = flat fitted curve, though single readings scatter.
Outcome (select one): active, inactive

Give the logged outcome of this assay for the following compound: CNC1CC(N)[C@H](O)[C@@H](O[C@@H]2OC(CO)C3OC4(OC(C(N)CO)C(O)C(O)C4O)O[C@@H]3[C@H]2O)C1O (some centres not stated)
inactive

Answer briefly: the call reported for CCC(=O)[C@@]1(C)[C@H](C)C[C@@H]2[C@@H]3CCC4=CC(=O)C=C[C@@]4(C)[C@H]3[C@H](O)C[C@]21C in this assay.
inactive

Which outcome was assigned to CC(=O)N[C@@H]1C(O)OC(CO)C(O)C1O (some centres not stated) in this test?
inactive

Write down the call the test reported for this compound. Item: COc1ccc([C@@H]2CC(=O)c3c(O)cc(O[C@H]4O[C@@H](CO[C@H]5O[C@@H](C)[C@@H](O)[C@@H](O)[C@@H]5O)[C@@H](O)[C@@H](O)[C@@H]4O)cc3O2)cc1O
inactive

What did this assay record as the result for O=C(Nc1ccccc1)OC[C@H](CN1CCCCC1)OC(=O)Nc1ccccc1 ?
inactive

What did the test return for CO[C@H]1[C@@H](OC(N)=O)[C@H](O)[C@@H](Oc2ccc3c(O)c(NC(=O)c4ccc(O)c(CC=C(C)C)c4)c(=O)oc3c2C)OC1(C)C ?
inactive

How was C=Cc1c(C)c2cc3nc(cc4[nH]c(cc5nc(cc1[nH]2)C(C)=C5CCC(=O)O)c(CCC(=O)OC)c4C)[C@@]1(C)C3=CC=C(C(=O)OC)[C@H]1C(=O)OC (tested in a mixture with another compound) classified in this test?
active

// return assay outcome for CC(=O)OCC(=O)[C@@]12OC(C)(C)O[C@@H]1C[C@H]1[C@H]3C[C@H](F)C4=CC(=O)C=C[C@@]4(C)[C@]3(F)[C@H](O)C[C@@]12C
inactive

Returns: the outcome recorded for COc1ccc(CC(N)C(=O)NC2C(CO)OC(n3cnc4c(N(C)C)ncnc43)C2O)cc1 (configuration not stated) in this assay.
active

Query: recorded result category for CCC(C)C(=O)OC1CC(O)C=C2C=CC(C)C(CCC(O)CC(O)CC(=O)O)C21 (configuration not stated) in this test
inactive

Test call for this compound, please: OCC1OC(n2cnc3c(=S)nc[nH]c32)C(O)C1O (configuration not stated)
inactive

Given COc1ccccc1OC[C@H](O)CO , state the outcome it received in this test.
inactive

Can you look up the reported call for O=C1OC(CO)C(O)C(O)C1O (configuration not stated) for me?
inactive

Which outcome was assigned to C[C@H](Oc1ccccc1)C(=O)N[C@@H]1C(=O)N2[C@@H]1SC(C)(C)[C@@H]2C(=O)O in this test?
inactive

Hello, I am checking results. What call was entered for CC[N+](CC)(CC)CC[C@](O)(c1ccccc1)C1CCCCC1 ?
inactive

Just curious, what result did Nc1nc2ncc(CNc3ccc(C(=O)NC(CCC(=O)O)C(=O)O)cc3)nc2c(=O)[nH]1 (configuration not stated) get here?
inactive

Per the records of this test, what outcome belongs to C=CCN1C(=CCO)[C@H]2C[C@H]3[C@@H]1CC[C@@]31c3ccccc3N3C=C4[C@@H]5N(/C=C/2[C@H]31)c1ccccc1[C@]51CC[C@H]2[C@H]1C[C@@H]4/C(=C/CO)N2CC=C ?
inactive

Record request — test call for CC1(C)OC2CC(=O)OC[C@@]23C1CC(=O)[C@]1(C)C3CC[C@@]2(C)C(c3ccoc3)OC(=O)C3O[C@@]321 (some centres not stated)
inactive

So what was the verdict on COC(=O)N/N=C/C1=C[N+](=O)c2ccccc2[N+]1=O in this test?
inactive

Could you check what this test reported for NS(=O)(=O)c1cc2c(cc1C(F)(F)F)N[C@H](Cc1ccccc1)NS2(=O)=O ?
inactive

Hi, do you know how COc1ccc2cc(C(C)CO)ccc2c1 (configuration not stated) came out in this test?
inactive

So what was the verdict on CC(=O)C[C@H](c1ccc([N+](=O)[O-])cc1)c1c(O)c2ccccc2oc1=O in this test?
inactive

Call for entry CC1C2CCC3C4CC=C5CC(N(C)C)CC[C@@]5(C)C4CC[C@@]32CN1C (some centres not stated) :
inactive

Lab log entry: CS(=O)(=O)c1ccc([C@H](O)[C@H](CO)NC(=O)C(Cl)Cl)cc1 — outcome as called in the assay?
inactive

What did the test return for COc1ccc(C[C@@](C)(N)C(=O)O)cc1OC ?
inactive

Answer briefly: the call reported for CO[C@@H]1C[C@H](O[C@H]2[C@@H](C)[C@H](O[C@@H]3O[C@@H](C)C[C@@H](N(C)C)[C@@H]3OC(C)=O)[C@H](C)C[C@]3(CO3)C(=O)[C@H](C)[C@H](OC(C)=O)[C@H](C)[C@H](C)OC(=O)[C@@H]2C)O[C@H](C)[C@@H]1OC(C)=O in this assay.
inactive

Given C[C@@H]1Cc2ccccc2N1NC(=O)c1ccc(Cl)c(S(N)=O)c1 (some centres not stated) , state the outcome it received in this test.
inactive

Hey, what did the test say about C[C@H]1CS(=O)(=O)CCN1/N=C\c1ccc([N+](=O)[O-])o1 ?
inactive

Record lookup: outcome of this test for CC(=O)[C@@H]1CC[C@@H]2[C@@H]3C[C@H](C)C4=CC(=O)CC[C@@]4(C)[C@H]3[C@H](O)C[C@]21C ?
inactive

// return assay outcome for NC[C@@H]1O[C@@H](O[C@H]2[C@H](O)[C@H](O[C@@H]3O[C@H](CO)[C@@H](O)[C@H](N)[C@@H]3O)[C@@H](N)C[C@H]2N)[C@H](N)C[C@@H]1O
inactive

Hi, sorry to bother you, what did the test record for CC(C)(C)NC[C@H](O)COc1cccc2c1CCC(=O)N2 ?
inactive

Fill in: this test's call for CC(=O)O[C@H]1C[C@@]2(C)[C@H](C[C@@H](O)[C@H]3[C@@]4(C)CC[C@@H](O)[C@@H](C)[C@H]4CC[C@@]32C)C1=C(CCC=C(C)C)C(=O)O is ___
inactive
